Numbers sourced from patent US20250154261A1.

# TESTED TARGET: Human CD33 R69G (human, UniProt P20138 18-259)
# Sequence (P20138 18-259 R69G): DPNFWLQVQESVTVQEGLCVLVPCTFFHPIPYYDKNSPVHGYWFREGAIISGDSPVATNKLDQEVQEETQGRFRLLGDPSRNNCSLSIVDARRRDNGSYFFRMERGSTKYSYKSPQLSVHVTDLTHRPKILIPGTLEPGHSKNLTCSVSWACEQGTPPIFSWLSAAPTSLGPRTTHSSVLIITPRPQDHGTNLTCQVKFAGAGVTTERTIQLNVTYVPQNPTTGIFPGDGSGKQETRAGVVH
# ASSAY INFO: SPR captured Fab
MEASURE NAME: pKd
Scale explanation: pKd corresponds to minus log10 of a concentration expressed in moles per litre.

Examples with answers:
- BINDER: "ADI-11809 Fab (Fab, V domains shown, Fab fragment; also called Ab6) VH: EVQLVESGGGLVQPGGSLRLSCAASGFTFPSYWMSWVRQAPGKGLEWVATIKRDGSEKGYVDSVKGRFTISRDNAKNSLYLQMNSLRAEDTAVYYCARPLNAGELDVWGQGTMVTVSS VL: DIQMTQSPSTLSASVGDRVTITCRASQSISSWLAWYQQKPGKAPKLLIYEASSLESGVPSRFSGSGSGTEFTLTISSLQPDDFATYYCQQSQSYPPITFGGGTKVEIK"
  MEASUREMENT: 9.66
- BINDER: "ADI-11835 Fab (Fab, V domains shown, Fab fragment; also called Ab10; 135 (so in the source)) VH: QLQLQESGPGLVKPSETLSLTCTVSGGSISSTDYYWGWIRQPPGKGLEWIGSIGYSGTYYNPSLKSRVTISVDTSKNQFSLKLSSVTAADTAVYYCARETAHDVHGMDVWGQGTTVTVSS VL: EIVLTQSPATLSLSPGERATLSCRASHSVYSYLAWYQQKPGQAPRLLIYDASNRATGIPARFSGSGSGTDFTLTISSLEPEDFAVYYCQQYDNLPTFGGGTKVEIK"
  MEASUREMENT: 9.17
- BINDER: "ADI-10159 Fab (Fab, V domains shown, Fab fragment; also called Ab1; G59) VH: EVQLVESGGGLVQPGGSLRLSCAASGFTFSSYGMSWVRQAPGKGLEWVANIKQDGSEKYYVDSVKGRFTISRDNAKNSLYLQMNSLRAEDTAVYYCAREGGPYYDSSGYFVYYGMDVWGQGTTVTVSS VL: DIQMTQSPSTLSASVGDRVTITCRASQSISSWLAWYQQKPGKAPKLLIYDASSLESGVPSRFSGSGSGTEFTLTISSLQPDDFATYYCQQYESFPTFGGGTKVEIK"
  MEASUREMENT: 8.25

Here's the next entry for you.
Ask: Quick one: pKd of ADI-11819 Fab (Fab, V domains shown, Fab fragment; also called Ab8) VH: EVQLVESGGGLVKPGGSLRLSCAASGFTFSSYAMSWVRQAPGKGLEWVSSISSSSEGIYYADSVKGRFTISRDNAKNSLYLQMNSLRAEDTAVYYCAREGGPYYDSSGYFVYYGMDVWGQGTTVTVSS VL: DIQMTQSPSTLSASVGDRVTITCRASNSISSWLAWYQQKPGKAPKLLIYEASSTKSGVPSRFSGSGSGTEFTLTISSLQPDDFATYYCQQYDDLPTFGGGTKVEIK ?
Result: 10.05
